Biological target: CDK12 (Homo sapiens)
Sequence (Q9NYV4 whole entry): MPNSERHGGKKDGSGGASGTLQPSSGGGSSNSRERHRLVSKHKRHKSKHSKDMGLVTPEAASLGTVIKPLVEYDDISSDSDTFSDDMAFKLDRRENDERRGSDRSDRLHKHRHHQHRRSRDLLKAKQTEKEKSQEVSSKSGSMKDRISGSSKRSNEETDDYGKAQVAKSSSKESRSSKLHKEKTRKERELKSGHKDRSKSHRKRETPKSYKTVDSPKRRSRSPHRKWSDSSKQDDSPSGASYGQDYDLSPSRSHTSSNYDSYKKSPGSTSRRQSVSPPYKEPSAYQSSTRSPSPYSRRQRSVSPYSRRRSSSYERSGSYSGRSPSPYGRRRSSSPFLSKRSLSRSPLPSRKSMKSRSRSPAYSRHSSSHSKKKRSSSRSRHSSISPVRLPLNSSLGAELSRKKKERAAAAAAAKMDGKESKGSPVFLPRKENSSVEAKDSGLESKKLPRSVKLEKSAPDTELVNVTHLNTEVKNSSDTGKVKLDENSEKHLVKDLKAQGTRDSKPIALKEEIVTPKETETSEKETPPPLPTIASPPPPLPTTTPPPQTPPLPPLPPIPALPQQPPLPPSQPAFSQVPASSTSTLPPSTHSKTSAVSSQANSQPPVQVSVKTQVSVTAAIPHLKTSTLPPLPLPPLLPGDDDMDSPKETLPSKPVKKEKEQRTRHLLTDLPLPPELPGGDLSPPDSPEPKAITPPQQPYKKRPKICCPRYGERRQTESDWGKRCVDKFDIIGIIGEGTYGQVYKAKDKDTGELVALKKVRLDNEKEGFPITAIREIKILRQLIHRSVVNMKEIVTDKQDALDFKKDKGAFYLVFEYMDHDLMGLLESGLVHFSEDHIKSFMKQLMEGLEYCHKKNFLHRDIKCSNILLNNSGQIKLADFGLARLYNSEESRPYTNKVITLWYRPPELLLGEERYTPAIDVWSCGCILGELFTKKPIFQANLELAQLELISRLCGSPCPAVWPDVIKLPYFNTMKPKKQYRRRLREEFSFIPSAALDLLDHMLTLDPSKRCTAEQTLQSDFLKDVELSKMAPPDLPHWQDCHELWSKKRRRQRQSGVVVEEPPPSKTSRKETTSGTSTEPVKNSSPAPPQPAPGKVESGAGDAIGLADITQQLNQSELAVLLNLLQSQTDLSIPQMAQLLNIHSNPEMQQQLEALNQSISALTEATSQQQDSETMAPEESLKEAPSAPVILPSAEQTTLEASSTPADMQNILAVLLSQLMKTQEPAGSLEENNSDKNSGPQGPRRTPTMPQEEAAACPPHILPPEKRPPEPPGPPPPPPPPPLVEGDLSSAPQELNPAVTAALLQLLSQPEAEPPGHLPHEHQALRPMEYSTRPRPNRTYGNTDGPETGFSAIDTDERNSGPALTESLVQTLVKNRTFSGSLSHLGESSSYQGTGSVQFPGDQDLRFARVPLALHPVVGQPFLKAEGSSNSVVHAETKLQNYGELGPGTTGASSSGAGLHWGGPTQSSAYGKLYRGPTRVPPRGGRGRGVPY
Sequence (O75909 whole entry partner): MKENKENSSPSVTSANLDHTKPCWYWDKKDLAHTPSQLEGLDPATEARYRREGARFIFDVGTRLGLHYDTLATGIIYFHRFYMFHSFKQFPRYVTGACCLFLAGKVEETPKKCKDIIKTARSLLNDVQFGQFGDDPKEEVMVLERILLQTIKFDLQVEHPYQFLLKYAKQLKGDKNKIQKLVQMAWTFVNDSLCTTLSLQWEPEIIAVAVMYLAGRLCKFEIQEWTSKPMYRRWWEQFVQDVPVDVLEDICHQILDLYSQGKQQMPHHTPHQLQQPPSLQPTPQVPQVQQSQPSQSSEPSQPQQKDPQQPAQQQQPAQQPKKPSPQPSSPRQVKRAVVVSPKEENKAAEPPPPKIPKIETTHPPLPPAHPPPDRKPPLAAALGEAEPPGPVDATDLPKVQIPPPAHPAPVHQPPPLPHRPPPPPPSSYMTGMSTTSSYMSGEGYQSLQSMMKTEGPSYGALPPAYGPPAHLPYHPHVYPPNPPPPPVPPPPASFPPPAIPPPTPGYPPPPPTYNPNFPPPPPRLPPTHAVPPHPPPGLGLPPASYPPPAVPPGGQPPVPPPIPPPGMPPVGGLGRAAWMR
Experiment: Biochemical assay for CDK12 (LANCE TR-FRET, IC50 determination)
Settings: CDK12, IC50 class; read-out: IC50 μM (in range)
RECORDED ENDPOINT: IC50

Any idea what its IC50 is? The molecule is CNC(=O)C(C)Oc1cc(NC(=O)Cc2ccc(C3CCCN(C#N)C3)nc2)ncc1Cl (single isomer, unassigned) [Compound 88]
> 0.1 µM

Note, next up: CN1CCC(Oc2cc(NC(=O)Cc3ccc(C4=CCN(C#N)CC4)nc3)ncc2Cl)C1 (stereo not shown) [Compound 10]
< 0.01 µM

Note, next up: `COc1cc(NC(=O)Cc2ccc(-c3cc(N4CC(O)C4)cc(C#N)n3)nc2)ncc1Cl`
> 0.1 µM

Note, next up: `COc1cc(NC(=O)Cc2ccc(-c3cc(C(C)(C)O)cc(C#N)n3)nc2)ncc1Cl`
0.01 to 0.1 µM

Note, next up: `CN1CCC[C@H](Oc2cc(NC(=O)Cc3ccc(C4=CCN(C#N)CC4)nc3)ncc2Cl)C1`
< 0.01 µM

Note, next up: `COc1cc(NC(=O)Cc2ccc(C3=CCCN(C#N)C3)cc2Cl)ncc1Cl`
0.01 to 0.1 µM

Note, next up: COc1cc(NC(=O)Cc2ccc(-c3cc(OC4CCN(C)C4)cc(C#N)n3)nc2)ncc1Cl (stereo not shown)
< 0.01 µM

Note, next up: COc1cc(NC(=O)Cc2ccc(C3CCCN(C#N)C3)nc2)ncc1Cl (single isomer, unassigned) [Compound 80]
0.01 to 0.1 µM

Note, next up: `N#CN1CC=C(c2ccc(CC(=O)Nc3cc(O[C@H]4CCOC4)c(Cl)cn3)cn2)CC1`
< 0.01 µM

Note, next up: `COc1cc(NC(=O)Cc2ccc(-c3ccc(C)c(C#N)n3)nc2)ncc1Cl`
> 0.1 µM

Note, next up: `Cc1ccc(NC(=O)Cc2ccc(C3=CCCN(C#N)C3)nc2)nc1`
0.01 to 0.1 µM

Note, next up: `COc1cc(NC(=O)Cc2ccc(C3=CCN(C#N)CC3)nc2)ncc1Cl`
< 0.01 µM

Note, next up: `N#CN1CC=C(c2ccc(CC(=O)Nc3cc(O[C@@H]4CCOC4)c(Cl)cn3)cn2)CC1`
< 0.01 µM

Note, next up: COc1cc(NC(=O)Cc2ccc(C3=CCN(C#N)C(C)C3)nc2)ncc1Cl (single isomer, unassigned) [Compound 67]
0.01 to 0.1 µM

Note, next up: `CNC(=O)[C@H](C)Oc1cc(NC(=O)Cc2ccc(-c3cnc(C#N)nc3)nc2)ncc1Cl`
0.01 to 0.1 µM

Note, next up: `COc1cc(NC(=O)Cc2ccc(-c3cc(C)cc(C#N)n3)nc2)ncc1Cl`
0.01 to 0.1 µM

Note, next up: `COc1cc(NC(=O)Cc2ccc(-c3ccc(CNC#N)nc3)nc2)ncc1Cl`
0.01 to 0.1 µM

Note, next up: `COc1cc(NC(=O)Cc2ccc(-c3ccc(C#N)nc3)nc2)ncc1Cl`
> 0.1 µM

Note, next up: COc1cc(NC(=O)C(C)c2ccc(C3=CCN(C#N)CC3)nc2)ncc1Cl (single isomer, unassigned) [Compound 52]
< 0.01 µM

Note, next up: `N#CN1CC=C(c2ncc(CC(=O)Nc3ccc(Cl)cn3)cc2F)CC1`
0.01 to 0.1 µM

Note, next up: `CNC(=O)[C@H](C)Oc1cc(NC(=O)Cc2ccc(-c3ccc(C#N)nc3)nc2)ncc1Cl`
0.01 to 0.1 µM

Note, next up: `CN1CCC(Oc2cc(NC(=O)Cc3ccc(C4=CCN(C#N)CC4)nc3)ncc2Cl)CC1`
0.01 to 0.1 µM

Note, next up: N#CN1CCCC(c2ccc(CC(=O)Nc3cc(O[C@H]4CCOC4)c(Cl)cn3)cn2)C1 (single isomer, unassigned) [Compound 97]
0.01 to 0.1 µM

Note, next up: CNC(=O)C(C)Oc1cc(NC(=O)Cc2ccc(C3CCN(C#N)CC3)nc2)ncc1Cl (single isomer, unassigned) [Compound 84]
< 0.01 µM

Note, next up: CC(CN(C)C)Oc1cc(NC(=O)Cc2ccc(C3=CCCN(C#N)C3)nc2)ncc1Cl (stereo not shown)
> 0.1 µM

Note, next up: CNC(=O)C(C)Oc1cc(NC(=O)Cc2ccc(C3CCN(C#N)CC3)nc2)ncc1Cl (single isomer, unassigned) [Compound 83]
0.01 to 0.1 µM

Note, next up: `COc1cc(NC(=O)Cc2ccc(-c3cc(N4CCN(C)CC4)cc(C#N)n3)nc2)ncc1Cl`
0.01 to 0.1 µM

Note, next up: `CN1CC2(CC(Oc3cc(NC(=O)Cc4ccc(C5=CCCN(C#N)C5)nc4)ncc3Cl)C2)C1`
< 0.01 µM

Note, next up: CNC(=O)C(C)Oc1cc(NC(=O)Cc2ccc(-c3cccc(C#N)n3)nc2)ncc1Cl (racemic)
0.01 to 0.1 µM

Note, next up: `CNC(=O)[C@H](C)Oc1cc(NC(=O)Cc2ccc(-c3ccnc(C#N)c3)nc2)ncc1Cl`
0.01 to 0.1 µM

Note, next up: `N#Cc1cccc(-c2ccc(CC(=O)Nc3cc(O[C@@H]4CCOC4)c(Cl)cn3)cn2)n1`
< 0.01 µM
